The entries below come with measured melting point values attached.

Look over these answered cases.
> print(dat)
                           structure.smiles  measured.value
1    CC(=O)Oc1ccccc1C(=O)NC(=[Se])NC1CCCCC1     79 to 81 °C
2         CC(C)N=C(NC(C)C)[Se]C(=O)c1ccccc1   163 to 165 °C
3              CC(C)NC(=[Se])NC(=O)c1ccccc1   125 to 127 °C
4  CC(C)N=C(NC(C)C)[Se]C(=O)c1ccc2c(c1)OCO2   138 to 140 °C

Turning now to a further record.
*Q* Entry `O=C(NC(=[Se])NC1CCCCC1)c1cccs1` needs its melting point filled in; supply it.
*A* 64 to 66 °C
